experiment: Ratio of drug level in brain to plasma in mouse at 2 mg/kg, po; assay type: ADME, organism-based; design: dose 2 mg/kg, route oral; conditions: read-out: BPR
Endpoint label: Kp

Task item: Given `Cc1nc2c3ccccc3nc(SCc3nc4ccccc4[nH]3)n2n1` , state its recorded Kp.
Reply: < 0.04

---

Measurement record for cAMP and cAMP-inhibited cGMP 3',5'-cyclic phosphodiesterase 10A (Homo sapiens); quantity recorded: pIC50.
Give bare numbers, as −log10 of the molar value.

Cc1cc2c3cccc(Cl)c3nc(CCc3nc(-c4ccccc4)cn3C)n2n1
7.28
Cc1cc2c3cccc(C)c3nc(CSc3nc(-c4ccccc4)cn3C)n2n1
6.80

Batch lookup, pIC50 per entry.
1. Cc1cc2c3ccccc3nc(CCc3nc(-c4ccccc4)cn3C)n2n1
2. Cc1cc2c3ccccc3nc(CSc3nc(-c4ccccc4)cn3C)n2n1
3. Cc1ccc2nc(CCc3nc(-c4ccccc4)cn3C)n3nc(C)cc3c2c1
4. COc1ccc2c(c1)nc(CCc1nc(-c3ccccc3)cn1C)n1nc(C)cc21
5. Cc1cc2c3ccc(Cl)cc3nc(CSc3nc(-c4ccccc4)cn3C)n2n1

Reply:
1: 7.30; 2: 7.32; 3: 7.80; 4: 7.51; 5: 6.89

---

target: 3',5'-cyclic-AMP phosphodiesterase 4D (Homo sapiens)
Sequence (Q08499 whole entry): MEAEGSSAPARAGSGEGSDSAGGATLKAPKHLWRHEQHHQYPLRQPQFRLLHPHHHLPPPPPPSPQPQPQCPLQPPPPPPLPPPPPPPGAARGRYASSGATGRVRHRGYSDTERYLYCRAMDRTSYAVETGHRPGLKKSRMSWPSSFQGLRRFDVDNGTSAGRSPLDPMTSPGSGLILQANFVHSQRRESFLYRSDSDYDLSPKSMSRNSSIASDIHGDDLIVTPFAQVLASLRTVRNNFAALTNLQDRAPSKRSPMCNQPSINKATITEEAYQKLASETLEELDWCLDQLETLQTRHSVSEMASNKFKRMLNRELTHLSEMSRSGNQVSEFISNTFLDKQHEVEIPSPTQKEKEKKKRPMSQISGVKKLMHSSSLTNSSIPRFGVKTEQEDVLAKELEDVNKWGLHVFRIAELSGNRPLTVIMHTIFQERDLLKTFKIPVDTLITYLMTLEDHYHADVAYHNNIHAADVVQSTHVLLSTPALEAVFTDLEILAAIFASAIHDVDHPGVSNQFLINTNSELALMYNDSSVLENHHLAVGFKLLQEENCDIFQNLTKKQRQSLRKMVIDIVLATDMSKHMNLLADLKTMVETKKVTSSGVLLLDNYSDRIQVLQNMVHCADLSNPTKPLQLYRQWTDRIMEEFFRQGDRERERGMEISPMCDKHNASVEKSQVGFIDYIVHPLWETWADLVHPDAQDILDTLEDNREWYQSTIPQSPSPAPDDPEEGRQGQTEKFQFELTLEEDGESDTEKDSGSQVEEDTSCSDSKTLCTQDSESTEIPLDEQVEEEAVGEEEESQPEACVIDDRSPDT
Endpoint label: IC50 (µM)
One number for each entry, in µM.

Task item: Request: IC50, test system 3',5'-cyclic-AMP phosphodiesterase 4D (Homo sapiens), entry `Cc1nc2c3ccccc3nc(SCc3nc4ccccc4[nH]3)n2n1`
Reply: 10

---

target: cAMP and cAMP-inhibited cGMP 3',5'-cyclic phosphodiesterase 10A (Homo sapiens, UniProt Q9Y233)
Sequence (Q9Y233 whole entry): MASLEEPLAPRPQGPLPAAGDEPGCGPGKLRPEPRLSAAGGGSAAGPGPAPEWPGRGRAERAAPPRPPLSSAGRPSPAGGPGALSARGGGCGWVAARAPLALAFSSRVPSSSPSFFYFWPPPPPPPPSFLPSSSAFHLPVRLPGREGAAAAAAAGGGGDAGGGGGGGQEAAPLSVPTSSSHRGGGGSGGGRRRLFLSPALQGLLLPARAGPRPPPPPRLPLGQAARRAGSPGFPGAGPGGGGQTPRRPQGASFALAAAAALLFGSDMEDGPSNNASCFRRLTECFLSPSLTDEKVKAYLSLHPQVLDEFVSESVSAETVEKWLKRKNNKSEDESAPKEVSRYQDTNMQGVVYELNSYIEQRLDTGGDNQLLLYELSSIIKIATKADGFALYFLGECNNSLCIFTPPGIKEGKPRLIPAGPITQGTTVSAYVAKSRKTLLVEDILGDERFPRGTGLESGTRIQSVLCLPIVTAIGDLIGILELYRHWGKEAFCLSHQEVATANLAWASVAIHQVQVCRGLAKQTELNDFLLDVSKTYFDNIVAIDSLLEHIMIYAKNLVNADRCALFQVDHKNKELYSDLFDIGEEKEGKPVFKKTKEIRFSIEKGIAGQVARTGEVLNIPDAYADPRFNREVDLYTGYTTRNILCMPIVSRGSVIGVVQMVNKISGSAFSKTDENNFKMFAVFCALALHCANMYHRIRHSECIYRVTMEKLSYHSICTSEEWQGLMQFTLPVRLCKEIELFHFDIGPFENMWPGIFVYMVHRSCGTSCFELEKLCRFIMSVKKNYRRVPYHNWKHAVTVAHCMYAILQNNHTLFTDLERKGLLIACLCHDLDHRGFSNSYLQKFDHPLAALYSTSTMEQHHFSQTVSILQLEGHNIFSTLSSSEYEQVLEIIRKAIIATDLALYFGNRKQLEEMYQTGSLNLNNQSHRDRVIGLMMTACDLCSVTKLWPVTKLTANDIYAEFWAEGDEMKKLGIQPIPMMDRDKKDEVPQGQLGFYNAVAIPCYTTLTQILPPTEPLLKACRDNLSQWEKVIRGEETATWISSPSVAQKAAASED
Give measured pIC50 for each item. Keep answers brief.
Answers are plain numbers, as −log10 of the molar value.

Below, each entry is followed by its recorded pIC50 result.
COc1ccc2nc(CCc3nc(-c4ccccc4)cn3C)n3nc(C)cc3c2c1
6.37
Cc1cc2c3cccc(C)c3nc(CCc3nc(-c4ccccc4)cn3C)n2n1
7.11
Cc1cc2c3cc(Cl)ccc3nc(CSc3nc(-c4ccccc4)cn3C)n2n1
6.96
Cc1cc2c3cc(Cl)ccc3nc(CCc3nc(-c4ccccc4)cn3C)n2n1
7.80
COc1cccc2c1nc(CSc1nc(-c3ccccc3)cn1C)n1nc(C)cc21
7.08
COc1ccc2c(c1)nc(CSc1nc(-c3ccccc3)cn1C)n1nc(C)cc21
7.00

Batch lookup, pIC50 per entry.
1. Cc1cc2c3ccc(Cl)cc3nc(CCc3nc(-c4ccccc4)cn3C)n2n1
2. Cc1ccc2nc(CSc3nc(-c4ccccc4)cn3C)n3nc(C)cc3c2c1

Reply:
1. 7.30
2. 7.12

Batch lookup, pIC50 per entry.
1. Cc1cc2c3cccc(Cl)c3nc(CSc3nc(-c4ccccc4)cn3C)n2n1
2. COc1cccc2c1nc(CCc1nc(-c3ccccc3)cn1C)n1nc(C)cc21

Reply:
[7.14, 7.43]

---

target: 3',5'-cyclic-AMP phosphodiesterase 7B (Homo sapiens)
Sequence (Q9NP56 whole entry): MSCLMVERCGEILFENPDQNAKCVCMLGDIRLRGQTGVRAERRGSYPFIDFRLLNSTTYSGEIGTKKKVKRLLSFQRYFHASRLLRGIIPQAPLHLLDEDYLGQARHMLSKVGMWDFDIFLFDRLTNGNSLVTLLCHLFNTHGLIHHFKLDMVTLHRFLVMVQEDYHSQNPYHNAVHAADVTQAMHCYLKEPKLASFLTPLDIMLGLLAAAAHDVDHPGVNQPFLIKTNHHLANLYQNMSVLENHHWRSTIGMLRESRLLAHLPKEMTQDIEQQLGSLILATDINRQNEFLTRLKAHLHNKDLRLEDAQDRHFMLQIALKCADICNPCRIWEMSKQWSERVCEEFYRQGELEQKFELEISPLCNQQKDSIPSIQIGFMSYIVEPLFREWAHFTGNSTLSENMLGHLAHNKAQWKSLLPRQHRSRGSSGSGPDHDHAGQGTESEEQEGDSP
Endpoint label: pIC50
Answers are plain numbers, as −log10 of the molar value.

Task item: Given `Cc1ccc2nc(CCc3nc(-c4ccccc4)cn3C)n3nc(C)cc3c2c1` , state its recorded pIC50.
Reply: 5.00

---

assay: Ratio of drug level in brain to plasma in mouse at 5 mg/kg, sc; assay type: ADME, organism-based; design: dose 5 mg/kg, route subcutaneous; conditions: read-out: BPR
Endpoint label: Kp
Answers are plain numbers.

Task item: Given `Cc1cc2c3ccccc3nc(CCc3nc(-c4ccccc4)cn3C)n2n1` , state its recorded Kp.
Reply: 0.65
